Tested on: CD2F1 mice, L1210 leukemia ip, survival T/C
Assay: NCI In Vivo Anticancer Drug Screen. Data for tumor model L1210 Leukemia (intraperitoneal) in CD2F1 (CDF1) mice
Conditions: endpoint: mean survival time; dose: 12.5 mg/kg/injection; schedule: Q01DX009 (ip); vehicle: saline; higher = longer survival
Toxic doses and inconclusive results are not listed.
metric: T/C

>>> result("CCN(CC)C(=O)c1cccc(COc2ccc(N3C(N)=NC(N)=NC3(C)C)cc2Cl)c1")
"100 % of control"
>>> result("[CH3][Sn]([CH3])([Br])[CH2]CCCBr")
"91 % of control"
>>> result("CCCCCCCCCCCCNC(=O)c1ccc[n+](C)c1")
"88 % of control"
>>> result("OC(CF)CF")
"106 % of control"
>>> result("Nc1nc(F)nc2c1ncn2C1OC(COP(=O)(O)O)C(O)C1O (stereo unspecified)")
"104 % of control"
>>> result("O=N[O-].[Co].[NH2-].[NH2-].[NH2-].[NH2-].[NH2-]")
"103 % of control"

###

Catalogue of T/C readings, one per entry.
Test system: CD2F1 mice, L1210 leukemia ip, survival T/C
Assay: NCI In Vivo Anticancer Drug Screen. Data for tumor model L1210 Leukemia (intraperitoneal) in CD2F1 (CDF1) mice
Conditions: endpoint: mean survival time; dose: 100.0 mg/kg/injection; schedule: Q04DX003 (ip); vehicle: saline sonified; higher = longer survival
Toxic doses and inconclusive results are not listed.
metric: T/C

>>> result("CS(=O)(=O)OCC(O)C(O)COS(C)(=O)=O (centres undefined)")
"100 % of control"
>>> result("CSc1nc2cc(S(=O)(=O)O)ccc2s1")
"103 % of control"
>>> result("Cc1cc2c3ccccc3nc(C(F)(F)F)n2n1")
"96 % of control"
>>> result("O=C(O)COc1ccc(Cl)cc1Cl")
"95 % of control"

###

System: CD2F1 mice, L1210 leukemia ip, survival T/C
Experiment: NCI In Vivo Anticancer Drug Screen. Data for tumor model L1210 Leukemia (intraperitoneal) in CD2F1 (CDF1) mice
Details: endpoint: mean survival time; dose: 50.0 mg/kg/injection; schedule: Q04DX002 (ip); vehicle: saline; higher = longer survival
Toxic doses and inconclusive results are not listed.
Catalogue of T/C readings, one per entry.
metric: T/C

>>> result("CCOC(=O)/C=C/SCC(N)C(=O)OCC (centres undefined)")
"94 % of control"
>>> result("OC(Cc1ccccn1)C(Cl)(Cl)Cl (centres undefined)")
"97 % of control"
>>> result("COc1ccc(N2C(N)=NC(N)=NC2(C)C)cc1")
"100 % of control"
>>> result("CC1(C)N=C(N)N=C(N)N1c1ccccc1Cl")
"100 % of control"

###

Test system: CD2F1 mice, L1210 leukemia ip, survival T/C
Test: NCI In Vivo Anticancer Drug Screen. Data for tumor model L1210 Leukemia (intraperitoneal) in CD2F1 (CDF1) mice
Details: endpoint: mean survival time; dose: 25.0 mg/kg/injection; schedule: Q01DX009 (ip); vehicle: saline
Toxic doses and inconclusive results are not listed. The calls were made as follows: active = survival T/C of 150% or more; inactive = T/C below 125% in these data.
Outcome codes: y = active, n = inactive

>>> assigned_label("Cc1ccccc1[As](c1ccccc1C)c1ccccc1C")
"n"
>>> assigned_label("CC[n+]1ccc(Nc2ccc(NC(=O)c3ccc(Nc4cc[n+](CC)c5ccc([N+](=O)[O-])cc45)cc3)cc2)cc1")
"y"
>>> assigned_label("Nc1nc(=O)c2[nH]cnc2n1O")
"n"
>>> assigned_label("CN(C)CCCC1c2ccccc2Oc2ccc(C(F)(F)F)cc21 (stereo not drawn)")
"n"
>>> assigned_label("Nc1nc(F)nc2c1ncn2C1OC(COP(=O)(O)O)C(O)C1O (stereo not drawn)")
"n"
>>> assigned_label("[Cl][Sn]([c]1ccccc1)[c]1ccccc1")
"n"
>>> assigned_label("CC(NC(=O)NCCCl)c1ccccc1 (stereo not drawn)")
"n"
>>> assigned_label("CCN(CCc1ccc(N)cc1)C(Cc1ccccc1)c1cccc(OC)c1 (stereo not drawn)")
"n"
>>> assigned_label("CC#CC(C)=O")
"n"
>>> assigned_label("CCN(CC)CCC(=O)c1ccccc1")
"n"
>>> assigned_label("N#Cc1cccnc1.NCCNCCN.[Br-].[Pt+4]")
"n"
>>> assigned_label("CN(C)[C@@H]1C(=O)C(C(N)=O)=C(O)[C@@]2(O)C(=O)C3=C(O)c4c(O)ccc(Cl)c4[C@@](C)(O)[C@H]3C[C@@H]12")
"n"
>>> assigned_label("COC1OC(COC(C)=O)C(OC(C)=O)C(OC(C)=O)[CH]1[Hg][O]C(C)=O (stereo not drawn)")
"n"

// provenance: PubChem BioAssay AID256
